These data points were gathered from patent US20150274664A1.

System Tested: UniProtKB Q8TDV5
Sequence (Q8TDV5 1-335): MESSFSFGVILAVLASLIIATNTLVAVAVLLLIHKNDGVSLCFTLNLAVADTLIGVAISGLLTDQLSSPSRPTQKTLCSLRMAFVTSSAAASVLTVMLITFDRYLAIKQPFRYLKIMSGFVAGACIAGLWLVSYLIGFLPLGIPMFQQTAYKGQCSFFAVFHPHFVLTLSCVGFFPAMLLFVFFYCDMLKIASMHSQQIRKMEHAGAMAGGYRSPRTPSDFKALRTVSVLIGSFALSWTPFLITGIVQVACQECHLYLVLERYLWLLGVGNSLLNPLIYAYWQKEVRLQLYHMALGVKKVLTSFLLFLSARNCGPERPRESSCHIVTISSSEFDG
Assay Summary: Measurement of GPR119 signaling using LANCE 384-well cAMP kit (LCMP assay)
Condition Context: HEK293 cells stably transfected with human GPR119
Reported Property: EC50 (nM)
Give bare numbers, in nM.

For orientation, consider the following solved cases.
Entry Smiles | Result Units | EC50
CC(C)c1noc(N2CCC([C@@H]3C[C@H]3CCOc3ccc(CC(=O)N(C)C)c(F)c3)CC2)n1 | nM | 6.3
CC1(OC(=O)N2CCC([C@H]3C[C@@H]3CCOc3ccc(CC(=O)N4CCC4)c(F)c3)CC2)CC1 | nM | 2.6
CC(C)c1noc(N2CCC([C@H]3C[C@@H]3CCOc3ccc(S(C)(=O)=O)cc3F)CC2)n1 | nM | 17
Fc1cc(-n2cnnn2)ccc1OCC[C@@H]1C[C@H]1C1CCN(c2ncc(Cl)cn2)CC1 | nM | 5.6
COCc1cnc(N2CCC([C@H]3C[C@@H]3CCOc3cc(F)c(CC(=O)N(C)C)c(F)c3)CC2)nc1 | nM | 0.63

Kindly give each listed record's EC50.
1. CCc1cnc(N2CCC([C@H]3C[C@@H]3CCOc3ccc(CC(=O)N(C)C)c(F)c3)CC2)nc1
2. COCc1noc(N2CCC([C@H]3C[C@@H]3CCOc3cc(F)c(CC(=O)N4CCC4)c(F)c3)CC2)n1

1. 2.9
2. 2.4
